TARGET_OF_ASSAY: human kinase Mps-1 (Homo sapiens)
Construct: N-terminally GST-tagged human full length recombinant Mps-1 kinase
ASSAY_OVERVIEW: Mps-1 kinase assay (HTRF)
SETUP_CONDITIONS: lowATP; mean; read-out: Mps1 lowATP mean IC50
pIC50: −log10 of the molar value.
ASSAY_METRIC: pIC50

>>> observed_result("COCCNc1nc2cc(C#N)ccc2n2c(-c3ccc(C(=O)NC4CC4)cc3)cnc12")
7.10
>>> observed_result("O=C(NC1CC1)c1ccc(-c2cnc3c(NCCCn4ccnc4)nc4cc(F)c(F)cc4n23)cc1Cl")
5.48
>>> observed_result("O=C(NC1CC1)c1ccc(-c2cnc3c(NCc4ccc(F)cc4)nc4cc(F)c(F)cc4n23)cc1Cl")
4.76
>>> observed_result("O=C(NC1CC1)c1ccc(-c2cnc3c(NCCCCO)nc4ccc(F)cc4n23)cc1Cl")
5.87
>>> observed_result("CCCNC(=O)c1ccc(-c2cnc3c(NCC(C)C)nc4ccccc4n23)cc1")
6.43
>>> observed_result("CCCCNc1nc2cc(C)c(C)cc2n2c(-c3ccc(C(=O)NC4CC4)cc3)cnc12")
8.54
>>> observed_result("CNC(=O)Nc1ccc(-c2cnc3c(NCc4ccnn4C)nc4cc(C)c(C)cc4n23)cc1")
6.70
>>> observed_result("COCCNc1nc2ccc(F)cc2n2c(-c3ccc(C(=O)NC4CC4)cc3)cnc12")
6.59

====

TARGET_OF_ASSAY: human kinase Mps-1 (Homo sapiens, UniProt P33981)
Construct: N-terminally GST-tagged human full length recombinant Mps-1 kinase
Sequence (P33981 1-857): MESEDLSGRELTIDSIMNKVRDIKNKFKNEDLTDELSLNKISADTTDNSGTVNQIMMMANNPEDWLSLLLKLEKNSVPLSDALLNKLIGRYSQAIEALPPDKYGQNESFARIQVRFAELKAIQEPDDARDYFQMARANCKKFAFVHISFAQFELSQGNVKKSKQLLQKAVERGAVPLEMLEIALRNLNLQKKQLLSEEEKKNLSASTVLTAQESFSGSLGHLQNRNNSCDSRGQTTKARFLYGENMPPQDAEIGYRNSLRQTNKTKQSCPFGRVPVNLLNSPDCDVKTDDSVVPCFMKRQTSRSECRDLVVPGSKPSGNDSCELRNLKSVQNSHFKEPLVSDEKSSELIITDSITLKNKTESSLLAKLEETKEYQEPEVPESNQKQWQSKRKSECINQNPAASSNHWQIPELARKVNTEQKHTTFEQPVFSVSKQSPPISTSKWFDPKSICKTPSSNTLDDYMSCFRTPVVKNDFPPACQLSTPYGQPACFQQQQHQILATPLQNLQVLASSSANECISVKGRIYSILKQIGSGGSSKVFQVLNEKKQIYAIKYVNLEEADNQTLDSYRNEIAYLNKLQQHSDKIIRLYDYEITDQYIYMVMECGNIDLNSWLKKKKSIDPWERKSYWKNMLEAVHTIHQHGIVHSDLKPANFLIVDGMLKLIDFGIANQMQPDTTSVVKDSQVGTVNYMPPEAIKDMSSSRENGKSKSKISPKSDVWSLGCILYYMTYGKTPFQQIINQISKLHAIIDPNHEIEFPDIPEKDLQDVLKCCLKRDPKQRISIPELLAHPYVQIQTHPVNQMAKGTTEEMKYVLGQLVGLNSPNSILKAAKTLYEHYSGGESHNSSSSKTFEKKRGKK
ASSAY_OVERVIEW: Mps-1 kinase assay (HTRF)
SETUP_CONDITIONS: lowATP; mean; read-out: Mps1 lowATP mean IC50
pIC50: −log10 of the molar value.
Each entry below carries its reported pIC50.
ASSAY_METRIC: pIC50

>>> observed_result("Cn1ccc(CNc2nc3cc(C#N)ccc3n3c(-c4ccc(C(=O)NC5CC5)c(Cl)c4)cnc23)n1 [Example 2-251]")
5.60
>>> observed_result("O=C(NC1CC1)c1ccc(-c2cnc3c(NCCCN4CCOCC4)nc4ccc(F)cc4n23)cc1Cl [Example 2-76]")
4.96
>>> observed_result("Cc1cc2nc(NCC3CC3)c3ncc(-c4ccc(C(=O)NC5CC5)cc4)n3c2cc1C [Example 2-150]")
8.58
>>> observed_result("CC(C)CNc1nc2ccccc2n2c(-c3ccc(C(=O)NCCc4cccnc4)cc3)cnc12 [Example 3-20]")
5.35
>>> observed_result("O=C(NC1CC1)c1ccc(-c2cnc3c(NCc4cccnc4)nc4cc(F)c(F)cc4n23)cc1Cl [Example 2-135]")
5.80
>>> observed_result("CC(C)CNc1nc2ccccc2n2c(-c3ccc(C(=O)NCCO)cc3)cnc12 [Example 3-4]")
5.75
>>> observed_result("Cn1nccc1CNc1nc2cc(F)c(F)cc2n2c(-c3ccc(C(=O)NC4CC4)cc3)cnc12 [Example 2-110]")
7.54
>>> observed_result("CC(C)CNc1nc2ccccc2n2c(-c3ccc(C(=O)NC4(CO)CC4)cc3)cnc12 [Example 3-30]")
6.56

====

TARGET_OF_ASSAY: human kinase Mps-1 (Homo sapiens, UniProt P33981)
Construct: N-terminally GST-tagged human full length recombinant Mps-1 kinase
Sequence (P33981 1-857): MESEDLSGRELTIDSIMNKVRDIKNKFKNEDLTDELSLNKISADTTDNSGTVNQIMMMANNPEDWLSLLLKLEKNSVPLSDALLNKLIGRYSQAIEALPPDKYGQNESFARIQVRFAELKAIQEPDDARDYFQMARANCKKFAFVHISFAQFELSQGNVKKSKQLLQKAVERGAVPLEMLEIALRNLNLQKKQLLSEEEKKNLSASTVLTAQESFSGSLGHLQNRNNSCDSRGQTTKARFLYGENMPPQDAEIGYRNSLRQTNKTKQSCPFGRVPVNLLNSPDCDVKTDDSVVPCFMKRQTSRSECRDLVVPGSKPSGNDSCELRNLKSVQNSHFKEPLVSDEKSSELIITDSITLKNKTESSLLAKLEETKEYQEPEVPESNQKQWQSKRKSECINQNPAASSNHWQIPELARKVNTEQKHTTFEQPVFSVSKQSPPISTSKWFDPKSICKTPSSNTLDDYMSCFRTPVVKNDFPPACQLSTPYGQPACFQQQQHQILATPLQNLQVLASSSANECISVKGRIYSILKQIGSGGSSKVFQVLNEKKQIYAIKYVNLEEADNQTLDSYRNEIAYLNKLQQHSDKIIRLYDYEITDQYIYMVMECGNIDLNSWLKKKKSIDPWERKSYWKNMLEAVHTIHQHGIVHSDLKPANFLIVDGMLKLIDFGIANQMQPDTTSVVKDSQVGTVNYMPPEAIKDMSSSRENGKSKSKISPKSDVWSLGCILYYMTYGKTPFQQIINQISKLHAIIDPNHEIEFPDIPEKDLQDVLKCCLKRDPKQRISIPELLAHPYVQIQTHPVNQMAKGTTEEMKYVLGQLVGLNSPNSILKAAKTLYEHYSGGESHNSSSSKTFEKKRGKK
ASSAY_OVERVIEW: Mps-1 kinase assay (HTRF)
SETUP_CONDITIONS: lowATP; mean; read-out: Mps1 lowATP mean IC50
pIC50: −log10 of the molar value.
Each entry below carries its reported pIC50.
ASSAY_METRIC: pIC50

>>> observed_result("N#Cc1ccc2c(c1)nc(NCCCCO)c1ncc(-c3ccc(C(=O)NC4CC4)c(Cl)c3)n12")
5.98
>>> observed_result("CCOc1ccc(-c2cnc3c(NCC(C)C)nc4ccccc4n23)cc1")
5.30
>>> observed_result("CC(C)CNc1nc2ccccc2n2c(-c3ccncc3)cnc12")
4.92
>>> observed_result("CNC(=O)c1cccc(-c2cnc3c(NCC(C)C)nc4ccccc4n23)c1")
4.76
>>> observed_result("O=C(NC1CC1)c1ccc(-c2cnc3c(NCCCCO)nc4ccc(F)cc4n23)cc1")
7.18
>>> observed_result("CCNC(=O)Nc1ccc(-c2cnc3c(NCC(C)C)nc4ccccc4n23)cc1")
4.70
>>> observed_result("CNC(=O)Nc1ccc(-c2cnc3c(NCC4CC4)nc4cc(C)c(C)cc4n23)cc1")
6.51
>>> observed_result("Cc1cc2nc(NCc3cccnc3)c3ncc(-c4ccc(C(=O)NC5CC5)cc4)n3c2cc1C")
8.22

====

Each entry below carries its reported log10 of IC50.
TARGET_OF_ASSAY: human kinase Mps-1 (Homo sapiens, UniProt P33981)
Construct: N-terminally GST-tagged human full length recombinant Mps-1 kinase
ASSAY_OVERVIEW: Mps-1 kinase assay (HTRF)
SETUP_CONDITIONS: lowATP; mean; read-out: Mps1 lowATP mean IC50
ASSAY_METRIC: log10 of IC50 (log10 of the value in µM)

>>> observed_result("CNC(=O)CNC(=O)c1ccc(-c2cnc3c(NCC(C)C)nc4ccccc4n23)cc1")
1.06
>>> observed_result("CNC(=O)Nc1ccc(-c2cnc3c(NCc4ccncc4)nc4ccc(F)cc4n23)cc1")
0.57
>>> observed_result("CNC(=O)Nc1ccc(-c2cnc3c(NCC(O)CO)nc4ccc(F)cc4n23)cc1 (stereo not shown)")
1.00
>>> observed_result("Cn1ccc(CNc2nc3cc(F)c(F)cc3n3c(-c4ccc(C(=O)NC5CC5)cc4)cnc23)n1")
-0.59
>>> observed_result("O=C(NC1CC1)c1ccc(-c2cnc3c(NCC(O)CO)nc4cc(F)c(F)cc4n23)cc1 (stereo not shown)")
-0.71
>>> observed_result("CC(C)CNc1nc2ccccc2n2c(-c3ccc(C(=O)Nc4cccc(C(N)=O)c4)cc3)cnc12")
-0.06
>>> observed_result("CC(C)(C)OC(=O)NCCCNc1nc2cc(C#N)ccc2n2c(-c3ccc(C(=O)NC4CC4)c(Cl)c3)cnc12")
0.16
>>> observed_result("N#Cc1ccc(CNc2nc3ccccc3n3c(-c4ccc(C(=O)NC5CC5)cc4)cnc23)cc1")
-0.54
>>> observed_result("CSc1ccc(-c2cnc3c(NCC(C)C)nc4ccccc4n23)cc1")
0.52
>>> observed_result("CNC(=O)Nc1ccc(-c2cnc3c(NCc4ccco4)nc4cc(C#N)ccc4n23)cc1")
0.72
>>> observed_result("CCCCNc1nc2cc(C)c(C)cc2n2c(-c3ccc(C(=O)NC4CC4)c(Cl)c3)cnc12")
-1.57
>>> observed_result("CC(C)CNc1nc2ccccc2n2c(-c3ccccc3C(F)(F)F)cnc12")
0.89
>>> observed_result("N#Cc1ccc2c(c1)nc(NCCCO)c1ncc(-c3ccc(C(=O)NC4CC4)c(Cl)c3)n12")
0.58
>>> observed_result("O=C(NC1CC1)c1ccc(-c2cnc3c(NCCCN4CCCC4=O)nc4cc(F)c(F)cc4n23)cc1Cl")
0.98
>>> observed_result("CNC(=O)Nc1ccc(-c2cnc3c(NCc4cccs4)nc4cc(C#N)ccc4n23)cc1")
0.45
>>> observed_result("CNC(=O)Nc1ccc(-c2cnc3c(NCCC(C)C)nc4cc(C#N)ccc4n23)cc1")
0.52
